Data provenance is the supplement of paper PMC9170038.

# Test system: MS2 coat protein
# test.details: apparent KD of MS2 coat protein; designed switch direction (-1 OFF switch, 1 ON switch): -1; higher = weaker reporter binding
# recorded.conditions: Eterna round: R95; input ligand: FMN 200 uM
So basically every entry gets a class from its apparent KD of MS2 coat protein, ranges being low = under 0.04 µM, mid = from 0.04 µM up to 0.07 µM, high = 0.07 µM and over

Category of GUGUGCAGAGGAUAUACAUAGUAAAAUAAAAUAUAAUAGGGACAUGAGGAUCACCCAUGUAGAAGGCUGAGUGU [Excluse me!! 23 - Jieux - Exclusion 2] (puzzle: Exclusion 2) : mid

Next:
Category of GAAAAGGUAGGAUAUACGAAAAAAAAGGGUAGAAAAAAAACACAUGAGGAUCACCCAUGUAGAAGGACCUAAAG [salish99_ex2_r3_090] (puzzle: Exclusion 2) : mid
